Exercise: state measured SH2 binding enrichment for each of the sequences provided.
- target.entity: SHP2-C SH2;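 also: peptide library displayed on the E. coli surface as eCPX fusions, selected cells deep-sequenced, score is each peptide's frequency after selection divided by its frequency in the input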
- test.description: SH2 binding enrichment of the phosphorylated peptide, bacterial display (enrichment ratio); higher = better substrate or ligand; peptides without Tyr show the background

Req: Missing value: SH2 binding enrichment, SHP2-C SH2, entry EWLRRHLENGK [HLA-A_Y195_Y195H] . Fill in?
Resp: 0.839

Req: Missing value: SH2 binding enrichment, SHP2-C SH2, entry PVEAAYQKVVA [HBB_Y131_Q128E] . Fill in?
Resp: 0.713

Req: Missing value: SH2 binding enrichment, SHP2-C SH2, entry VILARYGPAWR [CYP2D6_Y124_F120I] . Fill in?
Resp: 0.547

Req: Missing value: SH2 binding enrichment, SHP2-C SH2, entry EDSEYYRAFEE [CASQ2_Y179_K180R] . Fill in?
Resp: 0.559

Req: Missing value: SH2 binding enrichment, SHP2-C SH2, entry SFLSFYTSHVQ [NEFL_Y443_P440L_YF] . Fill in?
Resp: 1.23

Req: Missing value: SH2 binding enrichment, SHP2-C SH2, entry LENQTYFKSFE [AKAP9_Y2482] . Fill in?
Resp: 0.518

Req: Missing value: SH2 binding enrichment, SHP2-C SH2, entry LDPDSYNKFEN [FOXC1_Y159_M161K] . Fill in?
Resp: 0.838

Req: Missing value: SH2 binding enrichment, SHP2-C SH2, entry TVSTGYTQPQP [SARG_Y259_R258G] . Fill in?
Resp: 0.68

Req: Missing value: SH2 binding enrichment, SHP2-C SH2, entry VIESSYTSADG [DHCR7_Y382_C380S] . Fill in?
Resp: 0.861

Req: Missing value: SH2 binding enrichment, SHP2-C SH2, entry PDGHEYIFVDP [PDGFRA_Y572_YF] . Fill in?
Resp: 0.761

Req: Missing value: SH2 binding enrichment, SHP2-C SH2, entry SNFRAYATEPH [TNNI3_Y29_YF] . Fill in?
Resp: 0.671

Req: Missing value: SH2 binding enrichment, SHP2-C SH2, entry PYSSPYENSLI [EPOR_Y489_N487S] . Fill in?
Resp: 0.773

Req: Missing value: SH2 binding enrichment, SHP2-C SH2, entry MAYDRYVAICS [OR8D4_Y123_C120Y] . Fill in?
Resp: 0.713

---

- target.entity: Hck (UniProt P08631)
- Sequence (P08631 whole entry, looked up): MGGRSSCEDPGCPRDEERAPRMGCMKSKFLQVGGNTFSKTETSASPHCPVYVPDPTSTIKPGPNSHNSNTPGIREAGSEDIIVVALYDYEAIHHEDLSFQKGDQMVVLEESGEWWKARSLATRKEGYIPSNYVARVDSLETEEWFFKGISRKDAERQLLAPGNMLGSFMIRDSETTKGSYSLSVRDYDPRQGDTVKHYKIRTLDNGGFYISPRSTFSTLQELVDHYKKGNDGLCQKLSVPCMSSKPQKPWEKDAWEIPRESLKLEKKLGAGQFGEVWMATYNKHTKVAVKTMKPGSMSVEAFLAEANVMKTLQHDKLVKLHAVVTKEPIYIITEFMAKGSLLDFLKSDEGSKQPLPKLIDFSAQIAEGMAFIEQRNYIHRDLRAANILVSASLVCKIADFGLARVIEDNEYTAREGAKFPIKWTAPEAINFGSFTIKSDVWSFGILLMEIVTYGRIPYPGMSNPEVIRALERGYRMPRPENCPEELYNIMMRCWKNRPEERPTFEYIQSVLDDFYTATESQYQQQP
- test.description: phosphorylation enrichment, bacterial display (enrichment ratio); higher = better substrate or ligand; peptides without Tyr show the background
Exercise: state measured phosphorylation enrichment for each of the sequences provided.
# print the numeric value only

Req: Request the reported phosphorylation enrichment associated with SSQHRYSTPHA [RAF1_Y232]
Resp: 0.293

Req: Request the reported phosphorylation enrichment associated with EQYELYCEMGS [CBL_Y371]
Resp: 5.35

Req: Request the reported phosphorylation enrichment associated with CTTIHYNYMSN [TP53_Y234_C238S]
Resp: 0.434

Req: Request the reported phosphorylation enrichment associated with VGTKRYMAPDV [ACVRL1_Y375_E379D]
Resp: 0.334

Req: Request the reported phosphorylation enrichment associated with DMQTLYVNTAA [SMCHD1_Y403]
Resp: 0.578

Req: Request the reported phosphorylation enrichment associated with KELAPYDENWF [RPS19_Y48]
Resp: 0.517

Req: Request the reported phosphorylation enrichment associated with LERYIYNPEEF [HLA-DPB1_Y59_R61P]
Resp: 1.56

Req: Request the reported phosphorylation enrichment associated with CSRRLYQLTKL [AR_Y858_F857L]
Resp: 0.858

Req: Request the reported phosphorylation enrichment associated with LYSGDCYRIQG [DDR2_Y740_Y740C]
Resp: 1.16

Req: Request the reported phosphorylation enrichment associated with RKPDIYGRLAS [MCM4_Y459_E460G]
Resp: 5.06

Req: Request the reported phosphorylation enrichment associated with LGRGKYSEVFE [CSNK2A1_Y50]
Resp: 0.768

Req: Request the reported phosphorylation enrichment associated with ESPGLCGFLNV [BCR_Y910_Y910C]
Resp: 0.487

Req: Request the reported phosphorylation enrichment associated with YQNGMYGLHQD [SGSH_Y89_H84Y]
Resp: 1

Req: Request the reported phosphorylation enrichment associated with MFRAGYDTKQE [F10_Y407_C404R]
Resp: 0.383
